Test system: Colo320 human rectal cancer cells
test method notes: CCK-8 proliferation inhibition, Colo320
Assay type: cell-based
experimental conditions: Homo sapiens, COLO 320; compound concentration 100 μM, CCK-8 method
Binary classification by inhibition at 100 µM, with 20% as an inclusive lower bound for Fulfilled; all other cases are Not fulfilled.

Exam item: # check: inhibition at 100 µM of Nc1ncccc1NC(=O)c1ccc(CNC(=O)/C=C/c2ccc([N+](=O)[O-])cc2)cc1 is greater than or equal to 20%
Marked response: Not fulfilled

Exam item: Could you tell me if the measured inhibition at 100 µM of Nc1ncccc1NC(=O)c1ccc(CNC(=O)OCc2cccnc2)cc1 reaches 20% or more?
Marked response: Fulfilled

###

Test system: Hut78 T-cell Leukemia cell
test method notes: CCK-8 proliferation inhibition, Hut78
Format: cell-based
experimental conditions: Homo sapiens, HuT78, 10 μM, read-out: Hut-78 (inhibition %)
measured metric: inhibition at 10 µM (%)
One number for each entry, in %.

smiles entry	unit text	inhibition at 10 µM
Cc1ccc(COC(=O)NCc2ccc(C(=O)Nc3cccnc3N)cc2)cc1	%	15

Value sought for every listed compound: inhibition at 10 µM.
1. Nc1cnccc1NC(=O)c1ccc(CNC(=O)/C=C/c2ccccc2)cc1
2. Nc1ncccc1NC(=O)c1ccc(CNC(=O)CCc2ccccc2)cc1
3. COc1cccc(/C=C/C(=O)NCc2ccc(C(=O)Nc3ccncc3N)cc2)c1
4. COc1cccc(COC(=O)NCc2ccc(C(=O)Nc3ccncc3N)cc2)c1

Marked response:
1: 39.9; 2: -0.4; 3: 46.2; 4: 8

###

Test system: Jurkat E6-1 human T-cell lymphoma
test method notes: CCK-8 proliferation inhibition, Jurkat E6-1
Type: cell-based
experimental conditions: Homo sapiens, Jurkat E6.1, 10 μM
Quick rule for you: inhibition at 10 µM at 60% or higher means Y, lower means N.

Exam item: Quick check: does Cc1ccc(COC(=O)NCc2ccc(C(=O)Nc3cccnc3N)cc2)cc1 [V-9] have inhibition at 10 µM greater than or equal to 60%?
Marked response: Y

###

Tested on: Hut78 T-cell Leukemia cell
test method notes: CCK-8 proliferation inhibition, Hut78
Format: cell-based
experimental conditions: Homo sapiens, HuT78, 10 μM, read-out: Hut-78 (inhibition %)
Would you kindly list inhibition at 10 µM for each of these compounds?
One number for each entry, in %.

Study these solved cases before continuing.
smiles entry	inhibition at 10 µM [%]
Nc1ncccc1NC(=O)c1ccc(CNC(=O)/C=C/c2ccc(F)cc2)cc1	29.2
Cc1ccc(CCC(=O)NCc2ccc(C(=O)Nc3ccncc3N)cc2)cc1	-0.5

Please report inhibition at 10 µM for every entry that follows.
1. Cc1ccc(COC(=O)NCc2ccc(C(=O)Nc3ccncc3N)cc2)cc1
2. COc1ccc(COC(=O)NCc2ccc(C(=O)Nc3ccncc3N)cc2)cc1OC
3. Nc1cnccc1NC(=O)c1ccc(CNC(=O)/C=C/c2cccnc2)cc1

Marked response:
1: 15.5; 2: -0.4; 3: 25.7

Hi! Can you tell me inhibition at 10 µM for each of these compounds?
1. Nc1cnccc1NC(=O)c1ccc(CNC(=O)CCc2ccccc2)cc1
2. Nc1ncccc1NC(=O)c1ccc(CNC(=O)/C=C/c2ccccc2)cc1
3. COc1cc(COC(=O)NCc2ccc(C(=O)Nc3ccncc3N)cc2)cc(OC)c1OC
4. COc1cccc(/C=C/C(=O)NCc2ccc(C(=O)Nc3cccnc3N)cc2)c1
5. Nc1cnccc1NC(=O)c1ccc(CNC(=O)OCc2ccccc2)cc1

Marked response:
[2.3, 23.4, 8.1, 26.8, 18.2]

###

System: histone deacetylase
test method notes: in vitro inhibition activity on histone deacetylase (rat liver homogenate, MAL fluorescent substrate)
Assay type: biochemical, rats
experimental conditions: dosage 10 μmol/L, n = 4, 37° C., 16 hours
measured metric: inhibition rate % average number (%)
Answers are plain numbers, in %.

These solved cases illustrate the format of a correct answer.
molecule	unit text	inhibition rate % average number
Nc1ccccc1CNC(=O)c1ccc(CNC(=O)OCc2cccnc2)cc1	%	0.479
O=C(NCc1ccc(C(=O)Nc2ccccn2)cc1)OCc1cccnc1	%	−0.124
Nc1ncccc1NC(=O)c1ccc(CNC(=O)OCc2cccnc2)cc1	%	1.644
Nc1ccccc1NC(=O)c1ccc(CNC(=O)OCc2cccnc2)cc1 [MS-275, reference compound]	%	45.588
Nc1cnccc1NC(=O)c1ccc(CNC(=O)OCc2cccnc2)cc1	%	9.422

Exam item: Please report the recorded inhibition rate % average number for O=C(NCc1ccc(C(=O)Nc2cccnc2)cc1)OCc1cccnc1 .
Marked response: 0.170

###

Can you tell me inhibition at 100 µM for the items I'm about to list?
Tested on: Colo320 human rectal cancer cells
test method notes: CCK-8 proliferation inhibition, Colo320
Format: cell-based
experimental conditions: Homo sapiens, COLO 320; compound concentration 100 μM, CCK-8 method
Give bare numbers, in %.

See these solved cases before continuing.
smiles entry	tested system	measured metric	measured number
Nc1cnccc1NC(=O)c1ccc(CNC(=O)/C=C/c2ccc([N+](=O)[O-])cc2)cc1	Colo320 human rectal cancer cells	inhibition at 100 µM	44.4
COc1ccc(COC(=O)NCc2ccc(C(=O)Nc3ccncc3N)cc2)cc1	Colo320 human rectal cancer cells	inhibition at 100 µM	86.4

Exam item: Dear colleague, I am looking for the recorded inhibition at 100 µM of the following compound: Cc1ccc(/C=C/C(=O)NCc2ccc(C(=O)Nc3cccnc3N)cc2)cc1
Marked response: 40.1

###

Test system: Jurkat E6-1 human T-cell lymphoma
test method notes: CCK-8 proliferation inhibition, Jurkat E6-1
Format: cell-based
experimental conditions: Homo sapiens, Jurkat E6.1, 10 μM
measured metric: inhibition at 10 µM (%)
Answers are plain numbers, in %.

See these solved cases before continuing.
molecule	inhibition at 10 µM, %
Nc1ncccc1NC(=O)c1ccc(CNC(=O)OCc2ccc([N+](=O)[O-])cc2)cc1 [V-15]	18.6
Nc1cnccc1NC(=O)c1ccc(CNC(=O)OCc2cccnc2)cc1 [V-5]	58.5
COc1cc(COC(=O)NCc2ccc(C(=O)Nc3cccnc3N)cc2)cc(OC)c1OC [V-13]	0.9

State the recorded inhibition at 10 µM for every item in the following list.
1. Nc1ncccc1NC(=O)c1ccc(CNC(=O)CCc2ccc(F)cc2)cc1 [V-60]
2. Nc1ncccc1NC(=O)c1ccc(CNC(=O)CCc2ccccc2)cc1 [V-48]
3. Nc1ncccc1NC(=O)c1ccc(CNC(=O)/C=C/c2ccc3ccccc3c2)cc1 [V-46]
4. COc1ccc(CCC(=O)NCc2ccc(C(=O)Nc3cccnc3N)cc2)cc1 [V-52]

Marked response:
1: 11; 2: 9.7; 3: 14.8; 4: 7.6

Would you be so kind as to report inhibition at 10 µM for each listed record?
1. Nc1cnccc1NC(=O)c1ccc(CNC(=O)OCc2ccccc2)cc1 [V-7]
2. Cc1ccc(CCC(=O)NCc2ccc(C(=O)Nc3cccnc3N)cc2)cc1 [V-50]

Marked response:
1: 27.1; 2: 8.9

###

Test system: histone deacetylase
test method notes: in vitro inhibition activity on histone deacetylase (rat liver homogenate, MAL fluorescent substrate)
Format: biochemical, rats
experimental conditions: dosage 100 μmol/L, n = 4, 37° C., 16 hours
Assign 1 to entries whose inhibition rate % average number meets or exceeds 10%; assign 0 to the rest.

Look over these answered cases.
molecule	class label
Nc1ncccc1NC(=O)c1ccc(CNC(=O)OCc2cccnc2)cc1	1
Nc1cnccc1NC(=O)c1ccc(CNC(=O)OCc2cccnc2)cc1	1
O=C(NCc1ccc(C(=O)Nc2cccnc2)cc1)OCc1cccnc1	0
Nc1ccccc1CNC(=O)c1ccc(CNC(=O)OCc2cccnc2)cc1	0
O=C(NCc1ccc(C(=O)Nc2ccccn2)cc1)OCc1cccnc1	0

Next, consider the following molecule.
Exam item: Threshold query (inhibition rate % average number >= 10%) on Nc1ccccc1NC(=O)c1ccc(CNC(=O)OCc2cccnc2)cc1 [MS-275, reference compound]
Marked response: 1

###

For each entry below, report its inhibition at 100 µM value.
Test system: MDA-MB-435s human breast cancer cells
test method notes: CCK-8 proliferation inhibition, MDA-MB-435s
Assay type: cell-based
experimental conditions: Homo sapiens, MDA-MB-435S; compound concentration 100 μM, CCK-8 method
Give bare numbers, in %.

Would you please look over these solved cases?
molecule	tested system	unit text	inhibition at 100 µM
COc1cc(COC(=O)NCc2ccc(C(=O)Nc3cccnc3N)cc2)cc(OC)c1OC [V-13]	MDA-MB-435s human breast cancer cells	%	11.8
Nc1ncccc1NC(=O)c1ccc(CNC(=O)CCc2ccc(F)cc2)cc1 [V-60]	MDA-MB-435s human breast cancer cells	%	-3.4
Nc1ncccc1NC(=O)c1ccc(CNC(=O)/C=C/c2ccc3ccccc3c2)cc1 [V-46]	MDA-MB-435s human breast cancer cells	%	4.1
COc1cccc(/C=C/C(=O)NCc2ccc(C(=O)Nc3cccnc3N)cc2)c1 [V-91]	MDA-MB-435s human breast cancer cells	%	71.2
Cc1ccc(CCC(=O)NCc2ccc(C(=O)Nc3ccncc3N)cc2)cc1 [V-51]	MDA-MB-435s human breast cancer cells	%	31.3
Nc1ncccc1NC(=O)c1ccc(CNC(=O)OCc2ccccc2)cc1 [V-8]	MDA-MB-435s human breast cancer cells	%	-10.4
Nc1cnccc1NC(=O)c1ccc(CNC(=O)OCc2cccnc2)cc1 [V-5]	MDA-MB-435s human breast cancer cells	%	86.9
Cc1ccc(COC(=O)NCc2ccc(C(=O)Nc3cccnc3N)cc2)cc1 [V-9]	MDA-MB-435s human breast cancer cells	%	84.1

Read the next record carefully.
Exam item: Recorded inhibition at 100 µM of Nc1ncccc1NC(=O)c1ccc(CNC(=O)OCc2ccc(F)cc2)cc1 [V-19] , please.
Marked response: 89.1
